Item-by-item account of pIC50
SYSTEM NAME: SOS1 and KRAS G12D (protein-protein interaction) (Homo sapiens, UniProt Q07889)
ASSAY NOTES: KRAS::SOS1 AlphaScreen binding assay
TEST CONTEXT: read-out: IC50 (SOS1)
Answer as the number alone; pIC50 is minus log10 of concentration in mol/L.

As a guide, the following entries are already answered.
- COMPOUND: "Cc1cccc([C@@H](C)Nc2nc(C)nc3ccc([C@H]4CC[C@H](C(=O)N5CCC(O)C5)CC4)cc23)c1 (stereo partly shown)"
  pIC50: 7.60
- COMPOUND: "COc1cc2nc(C)nc(N[C@H](C)c3cc(N)cc(C(F)(F)F)c3)c2cc1[C@H]1CC[C@H](C(=O)N2CCN(C)CC2)CC1"
  pIC50: 8.70
- COMPOUND: "COc1cc2nc(C)nc(N[C@H](C)c3cccc(C(F)(F)F)c3)c2cc1C1CCC(C(=O)N(C)CC(O)CO)CC1 (stereo partly shown)"
  pIC50: 7.57

Consider now this further compound.
query: pIC50 for Cc1nc(N[C@H](C)c2cccc(C(F)(F)F)c2)c2cc(C3CCN(CC(=O)N(C)C)CC3)ccc2n1 ?
result: 7.96

----------
# IC50 per entry
SYSTEM NAME: SOS1 and KRAS G12D (protein-protein interaction) (Homo sapiens)
ASSAY NOTES: KRAS::SOS1 AlphaScreen binding assay
TEST CONTEXT: assay buffer without EDTA (values not marked with an asterisk); read-out: IC50 (SOS1)
Write the answer as a number in nM, unit excluded.

- COMPOUND: "COc1cc2nc(C)nc(N[C@H](C)c3cccc(C(F)(F)F)c3)c2cc1O[C@H]1CCN(C(C)=O)C1 [I-5]"
  MEASURED RESULT: 13

query: Form field: reported IC50 of Cc1cccc([C@@H](C)Nc2nc(C)nc3c(C)cc(C4CCN(C5CCOC5)CC4)cc23)c1 (some centres unmarked) [I-290]
result: 28

query: Another compound to look at: Cc1nc(N[C@H](C)c2cccc(C(F)(F)F)c2)c2cc(C3(O)CCS(=O)(=O)CC3)ccc2n1 [I-21]
result: 20

query: What do we get for COc1cc2nc(C)nc(N[C@H](C)c3cc(N)cc(C(F)(F)F)c3)c2cc1O[C@H]1CCN(C(C)=O)C1 [I-7] ?
result: 3

query: Ok, now CC(=O)N1CCC(O)(c2ccc3nc(C)nc(N[C@H](C)c4cccc(C)c4)c3c2)CC1 [I-52]
result: 14

query: // next record Cc1nc(N[C@H](C)c2cc(N)cc(C(F)(F)F)c2)c2cc([C@H]3CC[C@@H](O)CC3)ccc2n1 [I-66]
result: 43

query: And Cc1nc(N[C@H](C)c2cc(N)cc(C(F)(F)F)c2)c2cc(O[C@H]3CCOC3)c(C)cc2n1 [I-10] ?
result: 7

query: Thanks! And COc1cc2nc(C)nc(N[C@H](C)c3cccc(C(F)(F)F)c3F)c2cc1C1(O)CCN(C(C)=O)CC1 [I-45] ?
result: 2

----------
Quick reference for IC50 among some compounds
SYSTEM NAME: SOS1 and KRAS G12D (protein-protein interaction) (Homo sapiens, UniProt Q07889)
ASSAY NOTES: KRAS::SOS1 AlphaScreen binding assay
TEST CONTEXT: assay buffer with 100 μM EDTA (values marked with an asterisk); read-out: IC50 (SOS1)
Value expressed in nM; do not type the unit.

// below: answered compounds
- COMPOUND: "Cc1nc(N[C@H](C)c2cccc(Cl)c2F)c2cc(C3=CCNCC3)ccc2n1"
  EXPERIMENTAL ENDPOINT: "IC50"
  MEASURED RESULT: 24
- COMPOUND: "Cc1nc(N[C@H](C)c2cccc(Cl)c2)c2cc(C3=CCNCC3)ccc2n1"
  EXPERIMENTAL ENDPOINT: "IC50"
  MEASURED RESULT: 39
- COMPOUND: "Cc1cccc([C@@H](C)Nc2nc(C)nc3ccc([C@H]4CC[C@H](O)CC4)cc23)c1"
  EXPERIMENTAL ENDPOINT: "IC50"
  MEASURED RESULT: 34
- COMPOUND: "Cc1nc(N[C@H](C)c2cccc(C(F)(F)F)c2)c2cc(C3=CCNCC3)ccc2n1"
  EXPERIMENTAL ENDPOINT: "IC50"
  MEASURED RESULT: 18
- COMPOUND: "Cc1cccc([C@@H](C)Nc2nc(C)nc3ccc(C4CCNCC4)cc23)c1"
  EXPERIMENTAL ENDPOINT: "IC50"
  MEASURED RESULT: 38

query: What value of IC50 has been recorded for this entry: COc1cc2nc(C)nc(N[C@H](C)c3cccc(S(C)(=O)=O)c3)c2cc1O[C@H]1CCOC1
result: 47

query: Note, next up: Cc1cccc([C@@H](C)Nc2nc(C)nc3ccc(C4CC[S+]([O-])CC4)cc23)c1 (stereo partly shown)
result: 22

----------
IC50 reference
SYSTEM NAME: SOS1 and KRAS G12D (protein-protein interaction) (Homo sapiens)
ASSAY NOTES: KRAS::SOS1 AlphaScreen binding assay
TEST CONTEXT: values marked with * in the table; read-out: IC50 (SOS1)
Method: KRAS::SOS1 AlphaScreen Binding Assay Low IC50 values are indicative of high potency of the SOS1 inhibitor compound in this assay setting: […] After a 30 minute incubation time 5 μL of bead mix is added into columns 1-23. […] After a further 60 minute incubation, the signal is measured using a PerkinElmer Envision HTS Multilabel Reader using the AlphaScreen specifications from PerkinElmer. […] IC50 values are calculated and analyzed using a 4 parametric logistic model.
Give your result in nM as a bare value.

Example results:
- MOLECULE: "Cc1nc(N[C@H](C)c2cccc(C(F)(F)F)c2)c2cc(-c3ccc(=O)n(CC(=O)N(C)C)c3)ccc2n1 [I-333]"
  SYSTEM NAME: "SOS1 and KRAS G12D (protein-protein interaction) (Homo sapiens)"
  IC50, nM: 26
- MOLECULE: "Cc1cccc([C@@H](C)Nc2nc(C)nc3ccc(-c4ccc(=O)n(C)c4)cc23)c1 [I-103]"
  SYSTEM NAME: "SOS1 and KRAS G12D (protein-protein interaction) (Homo sapiens)"
  IC50, nM: 46
- MOLECULE: "Cc1nc(N[C@H](C)c2cccc(C(F)(F)F)c2)c2cc(-c3ccn(CC(=O)N(C)C)c(=O)c3)ccc2n1 [I-337]"
  SYSTEM NAME: "SOS1 and KRAS G12D (protein-protein interaction) (Homo sapiens)"
  IC50, nM: 37
- MOLECULE: "Cc1nc(N[C@H](C)c2cccc(C(F)(F)F)c2)c2cc(-c3ccc(=O)n(CC(=O)O)c3)ccc2n1 [I-341]"
  SYSTEM NAME: "SOS1 and KRAS G12D (protein-protein interaction) (Homo sapiens)"
  IC50, nM: 35
- MOLECULE: "Cc1nc(N[C@H](C)c2cccc(C(F)(F)F)c2)c2cc(-c3cnn(CC(=O)N(C)C)c3)ccc2n1 [I-85]"
  SYSTEM NAME: "SOS1 and KRAS G12D (protein-protein interaction) (Homo sapiens)"
  IC50, nM: 41

query: Using the record for COCC(=O)N1CCC(n2cc(-c3ccc4nc(C)nc(N[C@H](C)c5cccc(C)c5)c4c3)cn2)CC1 [I-219] , report its IC50.
result: 34

----------
Form field: IC50 (one value per entry).
SYSTEM NAME: SOS1 and KRAS G12D (protein-protein interaction) (Homo sapiens, UniProt Q07889)
ASSAY NOTES: KRAS::SOS1 AlphaScreen binding assay
TEST CONTEXT: read-out: IC50 (SOS1)

Example compounds with recorded IC50:
- COMPOUND: "Cc1nc(N[C@H](C)c2cccc(C(F)(F)F)c2)c2cc(C3=CCC(C(=O)N4CCN(C)CC4)CC3)ccc2n1 (some centres unmarked)"
  IC50: "27 nM"
- COMPOUND: "Cc1nc(N[C@H](C)c2cc(N)cc(C(F)(F)F)c2)c2cc([C@H]3CC[C@@H](C(=O)N4CCOCC4)CC3)ccc2n1"
  IC50: "8 nM"
- COMPOUND: "CCN(C)C(=O)[C@H]1CC[C@@H](c2ccc3nc(C)nc(N[C@H](C)c4cc(N)cc(C(F)(F)F)c4)c3c2)CC1"
  IC50: "15 nM"

# context switch: different compound, same IC50
query: Please give the measured IC50 for this compound: Cc1nc(N[C@H](C)c2cccc(C(F)(F)F)c2)c2cc([C@H]3CC[C@H](C(=O)N(C)C)CC3)ccc2n1
result: 7 nM

----------
SYSTEM NAME: SOS1 and KRAS G12D (protein-protein interaction) (Homo sapiens)
ASSAY NOTES: KRAS::SOS1 AlphaScreen binding assay
TEST CONTEXT: read-out: IC50 (SOS1)
Values of IC50 strictly less than 9 nM map to yes (1), and values of at least 9 nM map to no (0).

- COMPOUND: "Cc1nc(N[C@H](C)c2cc(N)cc(C(F)(F)F)c2)c2cc([C@H]3CC[C@H](C(=O)N(C)C)CC3)cc(C)c2n1"
  ASSIGNED CATEGORY: "yes (1)"

query: Dear reviewer, please state whether Cc1nc(N[C@H](C)c2cc(N)cc(C(F)(F)F)c2)c2cc([C@H]3CC[C@H](C(=O)N(C)C[C@@H](C)O)CC3)ccc2n1 has IC50 strictly beneath 9 nM.
result: yes (1)

query: Now the compound CCN(C)C(=O)[C@H]1CC[C@H](c2ccc3nc(C)nc(N[C@H](C)c4cc(N)cc(C(F)(F)F)c4)c3c2)CC1
result: yes (1)

query: Repeat for the following compound: Cc1cccc([C@@H](C)Nc2nc(C)nc3ccc([C@H]4CC[C@H](C(=O)N(C)C)CC4)cc23)c1
result: no (0)

query: Please do the same for Cc1nc(N[C@H](C)c2cc(N)cc(C(F)(F)F)c2)c2cc([C@H]3CC[C@H](C(=O)N(C)C)CC3)ccc2n1 as well.
result: yes (1)

query: Further, for Cc1nc(N[C@H](C)c2cccc(C(F)(F)F)c2)c2cc(-c3ccc(=O)n(C)c3)c(C)cc2n1 ?
result: no (0)

query: Input COc1cc(-c2cc3c(N[C@H](C)c4cccc(C(F)(F)F)c4)nc(C)nc3cc2OC)ccc1C(=O)N(C)C
result: no (0)

query: Moving on to COc1cc2nc(C)nc(N[C@H](C)c3cccc(C(F)(F)F)c3)c2cc1-c1ccc(C(=O)N(C)C)c(C)c1
result: no (0)

query: Quick one: COCC(=O)N1CCC(c2cc3c(N[C@H](C)c4cc(N)cc(C(F)(F)F)c4F)nc(C)nc3cc2OC)CC1
result: yes (1)

query: Please give the result for COCC(=O)N1CCC(c2cc(C)c3nc(C)nc(N[C@H](C)c4cccc(C)c4)c3c2)CC1 too.
result: no (0)

query: Ok, now CC(=O)N1CC=C(c2ccc3nc(C)nc(N[C@H](C)c4cccc(C(F)(F)F)c4)c3c2)CC1
result: no (0)

query: Do the same for CONC(=O)CC(C)c1cc2c(N[C@H](C)c3cccc(C(F)(F)F)c3)nc(C)nc2cc1OC (stereo partly drawn) please
result: no (0)

query: What do you get for COc1cc2nc(C)nc(N[C@H](C)c3cc(N)cc(C(F)(F)F)c3)c2cc1[C@H]1CC[C@H](C(=O)N(C)C)CC1 ?
result: yes (1)

query: Would you kindly repeat that for COc1cc2nc(C)nc(N[C@H](C)c3cccc(C)c3)c2cc1C1CCN(C(C)=O)CC1 ?
result: no (0)

query: Item: COc1cc2nc(C)nc(N[C@H](C)c3cc(N)cc(C(F)(F)F)c3)c2cc1-c1ccc(C(=O)N(C)CCO)nc1
result: yes (1)

query: Another: COCCN(C)C(=O)[C@H]1CC[C@H](c2ccc3nc(C)nc(N[C@H](C)c4cc(N)cc(C(F)(F)F)c4)c3c2)CC1
result: yes (1)

query: And then COc1cc2nc(C)nc(N[C@H](C)c3cccc(C(F)(F)F)c3)c2cc1C(C)CC(=O)NC1CC1 (stereo partly drawn) , what is it?
result: no (0)

query: And for Cc1nc(N[C@H](C)c2cc(N)cc(C(F)(F)F)c2)c2cc(-c3cc4n(n3)CCC(=O)N4)ccc2n1 ?
result: yes (1)

query: Another compound: Cc1nc(N[C@H](C)c2cc(N)cc(C(F)(F)F)c2)c2cc(C3=CCS(=O)(=O)CC3)cc(C)c2n1
result: no (0)
